Please provide measured Emax for the entries that follow.
Biological target: M2 muscarinic receptor (Homo sapiens, UniProt P08172)
Construct: expressed in transfected cells; host or cells: CHO (M2-CHO)
Experiment: Functional mobilization of intracellular calcium (FLIPR), M2-CHO cells
Type: cell-based
Conditions: 100% efficacy = maximum response obtained with the Carbachol control

Worked examples, 3 compounds total:
[
  {
    "compound": "COc1ccccc1[C@H]1CCN([C@@H]2C[C@H]3CC[C@H]2C3)C[C@@H]1O [Compound 117]",
    "target-desc": "M2 muscarinic receptor (Homo sapiens, UniProt P08172)",
    "assay-endpoint": "Emax",
    "test-result": "< 25%"
  },
  {
    "compound": "Cc1ccc(C)c(C2(O)CCN(C3CC4CCC3C4)CC2)c1 (stereo not shown) [Compound 135]",
    "target-desc": "M2 muscarinic receptor (Homo sapiens, UniProt P08172)",
    "assay-endpoint": "Emax",
    "test-result": "< 25%"
  },
  {
    "compound": "COc1ccc(Cl)cc1C1CCN(C2CC3CCC2C3)CC1 (stereo not shown) [Compound 209]",
    "target-desc": "M2 muscarinic receptor (Homo sapiens, UniProt P08172)",
    "assay-endpoint": "Emax",
    "test-result": "25 to 100%"
  }
]

Fill in reported Emax for this entry: COc1ccc(-c2ccc(C(=O)Nc3nccs3)cc2)cc1C1CCN(C2CC3CCC(C3)C2)CC1 (stereo not shown) [Compound 313]
< 25%

====

Target: M2 muscarinic receptor (Homo sapiens, UniProt P08172)
Construct: expressed in transfected cells; host or cells: CHO (M2-CHO)
Test: Functional mobilization of intracellular calcium (FLIPR), M2-CHO cells
Type: cell-based
Details: 100% efficacy = maximum response obtained with the Carbachol control
assay-endpoint: Emax

Some molecules with known Emax results, for comparison:
[
  {
    "molecule": "COc1ccccc1C1CCN(C2CCN(C(=O)c3ccccc3)CC2)CC1 [Compound 71]",
    "target-desc": "M2 muscarinic receptor (Homo sapiens, UniProt P08172)",
    "Emax": "< 25%"
  },
  {
    "molecule": "COc1ccc(Cl)cc1C1(OC)CCN(C[C@H]2C[C@H]3C=C[C@@H]2C3)CC1 [Compound 140]",
    "target-desc": "M2 muscarinic receptor (Homo sapiens, UniProt P08172)",
    "Emax": "25 to 100%"
  },
  {
    "molecule": "COc1ccc(Cl)cc1C1(OC)CCN(C[C@@H]2C[C@H]3C=C[C@H]2C3)CC1 [Compound 286]",
    "target-desc": "M2 muscarinic receptor (Homo sapiens, UniProt P08172)",
    "Emax": "< 25%"
  },
  {
    "molecule": "COc1ccc(Cl)cc1C1(F)CCN(C2CC3CCC(C3)C2)CC1 (centres unmarked) [Compound 356]",
    "target-desc": "M2 muscarinic receptor (Homo sapiens, UniProt P08172)",
    "Emax": "25 to 100%"
  }
]

Provide Emax value for the following molecule: COc1ccc(Cl)cc1C1(F)CCN(CC2CC3CCC2C3)CC1 (centres unmarked) [Compound 326]
25 to 100%

====

Target: M2 muscarinic receptor (Homo sapiens)
Construct: expressed in transfected cells; host or cells: CHO (M2-CHO)
Sequence (P08172 1-466): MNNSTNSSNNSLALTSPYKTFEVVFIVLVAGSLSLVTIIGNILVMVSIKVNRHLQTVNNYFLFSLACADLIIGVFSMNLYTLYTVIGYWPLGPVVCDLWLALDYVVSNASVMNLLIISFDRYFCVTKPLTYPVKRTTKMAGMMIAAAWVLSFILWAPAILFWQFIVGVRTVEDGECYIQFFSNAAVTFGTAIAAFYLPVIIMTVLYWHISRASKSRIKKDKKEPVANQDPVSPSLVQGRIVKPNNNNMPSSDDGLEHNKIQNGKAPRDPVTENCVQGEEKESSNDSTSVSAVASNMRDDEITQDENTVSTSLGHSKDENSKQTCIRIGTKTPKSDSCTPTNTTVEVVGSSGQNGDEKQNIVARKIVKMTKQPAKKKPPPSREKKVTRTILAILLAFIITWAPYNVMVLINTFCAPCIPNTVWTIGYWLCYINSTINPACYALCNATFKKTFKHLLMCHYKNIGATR
Assay: Functional mobilization of intracellular calcium (FLIPR), M2-CHO cells
Format: cell-based
Settings: 100% efficacy = maximum response obtained with the Carbachol control
Kindly state Emax for each of the entries shown.

[
  {
    "molecule": "Cc1ccc(C(F)(F)F)cc1C1CCN(C2C[C@H]3CC[C@H]2C3)CC1 (stereo partly shown)",
    "assay-endpoint": "Emax",
    "test-result": "25 to 100%"
  },
  {
    "molecule": "Clc1cccc(C2CCN(C3CC4CCC(C4)C3)CC2)c1 (stereo not shown)",
    "assay-endpoint": "Emax",
    "test-result": "< 25%"
  },
  {
    "molecule": "Cc1ccccc1C1(O)CCN(CC2CC3C=CC2C3)CC1 (stereo not shown)",
    "assay-endpoint": "Emax",
    "test-result": "< 25%"
  },
  {
    "molecule": "CCOC(=O)N1C2CCC1CC(N1CCC(c3cc(F)cc(F)c3OC)CC1)C2 (stereo not shown)",
    "assay-endpoint": "Emax",
    "test-result": "< 25%"
  },
  {
    "molecule": "Cc1ccc(C)c(C2CCN(CC3CC4C=CC3C4)CC2)c1 (stereo not shown)",
    "assay-endpoint": "Emax",
    "test-result": "< 25%"
  },
  {
    "molecule": "COc1ccc(-c2ccc(C(=O)Nc3nccs3)cc2)cc1C1CCN(C2CCCCC2)CC1",
    "assay-endpoint": "Emax",
    "test-result": "< 25%"
  },
  {
    "molecule": "COc1ccc(C)cc1C1CCN(C2C[C@H]3CC[C@H]2C3)CC1 (stereo partly shown)",
    "assay-endpoint": "Emax",
    "test-result": "25 to 100%"
  },
  {
    "molecule": "COc1ccc(Cl)cc1C1CCN(CC2CCCCC2)CC1",
    "assay-endpoint": "Emax",
    "test-result": "< 25%"
  },
  {
    "molecule": "COc1ccc(Cl)cc1C1(F)CCN(C[C@@H]2C[C@H]3C=C[C@H]2C3)CC1",
    "assay-endpoint": "Emax",
    "test-result": "25 to 100%"
  }
]

Next up:
Provide one value: measured Emax of COc1ccc(Cl)cc1C1CCN(C2CC[S+]([O-])CC2)CC1 (stereo not shown)
< 25%

Data provenance: patent US7880007B2
